Answer each item with its documented melting point.

Documented melting point of C=CCOc1ccccc1OCC(O)CNCCOc1ccc(O)c(C(N)=O)c1 (stereo unspecified) : 147 to 148 °C

# compound COc1ccc(-c2ccc3[nH]c4c(c3c2)CCN(C(=O)c2ccccc2)CC4)cc1 ; its melting point = 140 to 145 °C

Note to self: melting point recorded for O=C(O)c1cn(-c2cccc(Br)c2)cn1 was 205 to 207 °C

Reported melting point ( COC(=O)C1(Cc2c[nH]c3ccccc23)CC(N=[N+]=[N-])C(=O)O1 (stereo unspecified) ) = 110 to 112 °C

Looking up CCC(=O)c1ccc(NC(C)=O)cc1 , I see its melting point listed as 169 to 170 °C

Record CN(c1cccc2cc(-c3ncc(CCC(=O)N4CCOCC4)s3)[nH]c12)S(=O)(=O)c1cccs1 , field melting point: 160 to 161 °C
